target: von Hippel-Lindau disease tumor suppressor/Steroid hormone receptor ERR1 (Homo sapiens) (UniProt P11474+P40337); assay: Protac activity at VHL/ERRalpha in human MDA-MB-231 cells assessed as induction of […] degradation at 100 nM incubated for 4 hrs by Western blot analysis relative to control; type: cell-based
Sequence (P11474 whole entry, looked up): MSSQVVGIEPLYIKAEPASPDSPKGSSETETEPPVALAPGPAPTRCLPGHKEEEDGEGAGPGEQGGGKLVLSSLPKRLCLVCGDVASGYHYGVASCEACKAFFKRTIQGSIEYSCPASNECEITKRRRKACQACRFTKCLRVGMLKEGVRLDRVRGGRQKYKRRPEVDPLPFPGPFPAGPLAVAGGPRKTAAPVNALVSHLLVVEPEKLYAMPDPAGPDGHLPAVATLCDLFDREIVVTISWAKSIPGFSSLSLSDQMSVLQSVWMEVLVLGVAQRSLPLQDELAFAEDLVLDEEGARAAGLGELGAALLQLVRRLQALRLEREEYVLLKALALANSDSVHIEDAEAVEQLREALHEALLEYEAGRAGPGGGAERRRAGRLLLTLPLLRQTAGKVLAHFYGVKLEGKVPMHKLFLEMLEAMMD
Sequence (P40337 whole entry, looked up): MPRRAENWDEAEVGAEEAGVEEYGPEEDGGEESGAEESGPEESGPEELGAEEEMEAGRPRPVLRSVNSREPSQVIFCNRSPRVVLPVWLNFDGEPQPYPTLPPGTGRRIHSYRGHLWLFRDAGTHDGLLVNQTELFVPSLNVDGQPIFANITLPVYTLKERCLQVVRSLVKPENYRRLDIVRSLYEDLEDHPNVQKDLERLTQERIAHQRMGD
measured_quantity: Activity (%)
One number for each entry, in %.

given_smiles	value_unit	Activity
COc1cc(/C=C(\C#N)C(=O)NCCOCCC(=O)N[C@H](C(=O)N2C[C@H](O)C[C@H]2C(=O)NCc2ccc(-c3scnc3C)cc2)C(C)(C)C)ccc1OCc1ccc(C(F)(F)F)cc1C(F)(F)F	%	89

Required: Activity, one value per compound below.
1. COc1cc(/C=C2\SC(=O)N(CCOCCC(=O)N[C@H](C(=O)N3C[C@H](O)C[C@H]3C(=O)NCc3ccc(-c4scnc4C)cc3)C(C)(C)C)C2=O)ccc1Oc1ccc(C#N)cc1C(F)(F)F
2. COc1cc(/C=C(\C#N)C(=O)NCCCCCCCC(=O)N[C@H](C(=O)N2C[C@H](O)C[C@H]2C(=O)NCc2ccc(-c3scnc3C)cc2)C(C)(C)C)ccc1OCc1ccc(C(F)(F)F)cc1C(F)(F)F
3. COc1cc(/C=C(\C#N)C(=O)NCCOCCOCCOCCC(=O)N[C@H](C(=O)N2C[C@H](O)C[C@H]2C(=O)NCc2ccc(-c3scnc3C)cc2)C(C)(C)C)ccc1OCc1ccc(C(F)(F)F)cc1C(F)(F)F

Output line:
1. 40
2. 9
3. 4

----------
target: von Hippel-Lindau disease tumor suppressor/Steroid hormone receptor ERR1 (Homo sapiens) (UniProt P11474+P40337); test: Protac activity at VHL/ERRalpha in human MDA-MB-231 cells assessed as induction of […] degradation at 30 nM incubated for 4 hrs by Western blot analysis relative to control; type: cell-based
Give measured Activity for each item. Keep answers brief.
Numbers only, in %.

given_smiles	Activity [%]
COc1cc(/C=C(\C#N)C(=O)NCCOCCC(=O)N[C@H](C(=O)N2C[C@H](O)C[C@H]2C(=O)NCc2ccc(-c3scnc3C)cc2)C(C)(C)C)ccc1OCc1ccc(C(F)(F)F)cc1C(F)(F)F	63
COc1cc(/C=C(\C#N)C(=O)NCCCCCC(=O)N[C@H](C(=O)N2C[C@H](O)C[C@H]2C(=O)NCc2ccc(-c3scnc3C)cc2)C(C)(C)C)ccc1OCc1ccc(C(F)(F)F)cc1C(F)(F)F	58
COc1cc(/C=C(\C#N)C(=O)NCCCCC(=O)N[C@H](C(=O)N2C[C@@H](O)C[C@H]2C(=O)NCc2ccc(-c3scnc3C)cc2)C(C)(C)C)ccc1OCc1ccc(C(F)(F)F)cc1C(F)(F)F	6
COc1cc(/C=C(\C#N)C(=O)NCCOCC(=O)N[C@H](C(=O)N2C[C@H](O)C[C@H]2C(=O)NCc2ccc(-c3scnc3C)cc2)C(C)(C)C)ccc1OCc1ccc(C(F)(F)F)cc1C(F)(F)F	79
COc1cc(/C=C(\C#N)C(=O)NCCCCC(=O)N[C@H](C(=O)N2C[C@H](O)C[C@H]2C(=O)NCc2ccc(-c3scnc3C)cc2)C(C)(C)C)ccc1OCc1ccc(C(F)(F)F)cc1C(F)(F)F	83

Required: Activity, one value per compound below.
1. COc1cc(/C=C(\C#N)C(=O)NCCOCCOCCOCCC(=O)N[C@H](C(=O)N2C[C@H](O)C[C@H]2C(=O)NCc2ccc(-c3scnc3C)cc2)C(C)(C)C)ccc1OCc1ccc(C(F)(F)F)cc1C(F)(F)F
2. COc1cc(/C=C(\C#N)C(=O)NCCCCCCCC(=O)N[C@H](C(=O)N2C[C@H](O)C[C@H]2C(=O)NCc2ccc(-c3scnc3C)cc2)C(C)(C)C)ccc1OCc1ccc(C(F)(F)F)cc1C(F)(F)F

Output line:
1: 0; 2: 3

----------
target: von Hippel-Lindau disease tumor suppressor/Steroid hormone receptor ERR1 (Homo sapiens) (UniProt P11474+P40337); test: Protac activity at VHL/ERRalpha in human MDA-MB-231 cells assessed as induction of […] degradation at 30 nM incubated for 4 hrs by Western blot analysis relative to control; type: cell-based
Please mark YES if the recorded Activity is equal to or greater than 1%, and NO if it falls below.

Take a look at these entries with their results.
given_smiles	class_label
COc1cc(/C=C(\C#N)C(=O)NCCCC(=O)N[C@H](C(=O)N2C[C@H](O)C[C@H]2C(=O)NCc2ccc(-c3scnc3C)cc2)C(C)(C)C)ccc1OCc1ccc(C(F)(F)F)cc1C(F)(F)F	YES
COc1cc(/C=C(\C#N)C(=O)NCCOCCOCCC(=O)N[C@H](C(=O)N2C[C@H](O)C[C@H]2C(=O)NCc2ccc(-c3scnc3C)cc2)C(C)(C)C)ccc1OCc1ccc(C(F)(F)F)cc1C(F)(F)F	NO
COc1cc(/C=C(\C#N)C(=O)NCCCCCCC(=O)N[C@H](C(=O)N2C[C@H](O)C[C@H]2C(=O)NCc2ccc(-c3scnc3C)cc2)C(C)(C)C)ccc1OCc1ccc(C(F)(F)F)cc1C(F)(F)F	YES

Next molecule, please.
Input line: Answer whether Activity of COc1cc(/C=C(\C#N)C(=O)NCCC(=O)N[C@H](C(=O)N2C[C@H](O)C[C@H]2C(=O)NCc2ccc(-c3scnc3C)cc2)C(C)(C)C)ccc1OCc1ccc(C(F)(F)F)cc1C(F)(F)F is greater than or equal to 1%.
Output line: YES

----------
target: von Hippel-Lindau disease tumor suppressor/Steroid hormone receptor ERR1 (Homo sapiens) (UniProt P11474+P40337); assay: Protac activity at VHL/ERRalpha in human MDA-MB-231 cells assessed as induction of […] degradation at 100 nM incubated for 4 hrs by Western blot analysis relative to control; format: cell-based
measured_quantity: Activity (%)
Give bare numbers, in %.

Before answering, review these 6 worked examples.
given_smiles	value_unit	Activity
COc1cc(/C=C(\C#N)C(=O)NCCOCC(=O)N[C@H](C(=O)N2C[C@H](O)C[C@H]2C(=O)NCc2ccc(-c3scnc3C)cc2)C(C)(C)C)ccc1OCc1ccc(C(F)(F)F)cc1C(F)(F)F	%	92
COc1cc(/C=C(\C#N)C(=O)NCCCCCC(=O)N[C@H](C(=O)N2C[C@H](O)C[C@H]2C(=O)NCc2ccc(-c3scnc3C)cc2)C(C)(C)C)ccc1OCc1ccc(C(F)(F)F)cc1C(F)(F)F	%	78
COc1cc(/C=C(\C#N)C(=O)NCCCCC(=O)N[C@H](C(=O)N2C[C@H](O)C[C@H]2C(=O)NCc2ccc(-c3scnc3C)cc2)C(C)(C)C)ccc1OCc1ccc(C(F)(F)F)cc1C(F)(F)F	%	96
COc1cc(/C=C(\C#N)C(=O)NCCOCCOCCC(=O)N[C@H](C(=O)N2C[C@H](O)C[C@H]2C(=O)NCc2ccc(-c3scnc3C)cc2)C(C)(C)C)ccc1OCc1ccc(C(F)(F)F)cc1C(F)(F)F	%	15
COc1cc(/C=C(\C#N)C(=O)NCCCC(=O)N[C@H](C(=O)N2C[C@H](O)C[C@H]2C(=O)NCc2ccc(-c3scnc3C)cc2)C(C)(C)C)ccc1OCc1ccc(C(F)(F)F)cc1C(F)(F)F	%	85
COc1cc(/C=C(\C#N)C(=O)NCCC(=O)N[C@H](C(=O)N2C[C@H](O)C[C@H]2C(=O)NCc2ccc(-c3scnc3C)cc2)C(C)(C)C)ccc1OCc1ccc(C(F)(F)F)cc1C(F)(F)F	%	50

Read the next record carefully.
Input line: So what's the measured Activity for this one? COc1cc(/C=C(\C#N)C(=O)NCCCCCCC(=O)N[C@H](C(=O)N2C[C@H](O)C[C@H]2C(=O)NCc2ccc(-c3scnc3C)cc2)C(C)(C)C)ccc1OCc1ccc(C(F)(F)F)cc1C(F)(F)F
Output line: 71
